Documented EC50 across a set of compounds
- tested on: Keap1 (321-609) Kelch domain / TAMRA-labeled 16mer NRF2 peptide (ETGE motif) (Homo sapiens, UniProt Q14145)
- Construct: the Kelch domain (321-609) of Keap1 is used
- Sequence (Q14145 321-609): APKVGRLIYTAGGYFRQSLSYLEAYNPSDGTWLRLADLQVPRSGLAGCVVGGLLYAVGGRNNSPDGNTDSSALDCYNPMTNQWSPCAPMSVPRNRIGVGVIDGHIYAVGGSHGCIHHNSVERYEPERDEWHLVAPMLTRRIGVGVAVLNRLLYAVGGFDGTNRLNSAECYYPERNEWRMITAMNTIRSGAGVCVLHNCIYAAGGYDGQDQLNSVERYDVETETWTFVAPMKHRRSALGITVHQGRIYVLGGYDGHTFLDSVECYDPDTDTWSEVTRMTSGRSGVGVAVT
- protocol summary: NRF2-Keap1 FP Assay
- assay context: 20 nM Keap1 (321-609), 8 nM Tamra labeled peptide
parameter measured: EC50

# compound, endpoint value
records = [
    ("CC[C@H]1Cc2ccc(Br)cc2S(=O)(=O)N(Cc2cccc(-n3ccc(C(=O)O)c3[C@@H]3C[C@H]3c3cn(C)nn3)c2)C1", "10 to 100 nM"),
    ("Cc1ccc(CN2C[C@@H](C)Cc3ccc(C(F)(F)F)cc3S2(=O)=O)cc1-n1ccc(C(=O)O)c1[C@@H]1C[C@H]1c1cn(C)nn1 (racemic)", "100 to 1000 nM"),
    ("CC[C@H]1Cc2cc(C(F)(F)F)ccc2S(=O)(=O)N(Cc2cccc(-n3ccc(C(=O)O)c3[C@@H]3C[C@H]3c3cn(C)nn3)c2)C1", "10 to 100 nM"),
    ("Cn1cc([C@@H]2C[C@H]2c2c(C(=O)O)ccn2-c2cccc(CN3Cc4cc(F)ccc4OC(C)(C)C3)c2)nn1 (racemic)", "10 to 100 nM"),
    ("CCCC[C@H]1Cc2ccc(C(F)(F)F)cc2S(=O)(=O)N(Cc2cccc(-n3ccc(C(=O)O)c3[C@@H]3C[C@H]3c3cn(C)nn3)c2)C1", "10 to 100 nM"),
]

----------
Documented pEC50 across a set of molecules
- tested on: Keap1 (321-609) Kelch domain / TAMRA-labeled 16mer NRF2 peptide (ETGE motif) (Homo sapiens, UniProt Q14145)
- Construct: the Kelch domain (321-609) of Keap1 is used
- protocol summary: NRF2-Keap1 FP Assay
- assay context: 20 nM Keap1 (321-609), 8 nM Tamra labeled peptide
pEC50: −log10 of the molar value.
parameter measured: pEC50

# molecule, parameter measured, endpoint value
data = [
    ("CCC[C@@H]1CCCCN1C(=O)c1cccc(-c2cccc(-n3ccc(C(=O)O)c3[C@@H]3C[C@H]3c3cn(C)nn3)c2)c1C(F)(F)F [Example 24]", "pEC50", "6.00 to 7.00"),
    ("Cc1c(CN2C[C@@H](C)Cc3ccc(C(F)(F)F)cc3S2(=O)=O)cccc1-n1ccc(C(=O)O)c1[C@@H]1C[C@H]1c1cn(C)nn1 (racemic) [Example 10]", "pEC50", "6.00 to 7.00"),
    ("C[C@H](Oc1cccc(-c2cccc(-n3ccc(C(=O)O)c3[C@H]3C[C@@H]3c3cn(C)nn3)c2)c1)C1CCCCC1 [Example 17]", "pEC50", "7.00 to 8.00"),
]

----------
- tested on: full length NRF2 protein and full length Keap1 protein (Homo sapiens)
- Construct: full length NRF2 protein and full length Keap1 protein; His
- Sequence (Q14145 whole entry): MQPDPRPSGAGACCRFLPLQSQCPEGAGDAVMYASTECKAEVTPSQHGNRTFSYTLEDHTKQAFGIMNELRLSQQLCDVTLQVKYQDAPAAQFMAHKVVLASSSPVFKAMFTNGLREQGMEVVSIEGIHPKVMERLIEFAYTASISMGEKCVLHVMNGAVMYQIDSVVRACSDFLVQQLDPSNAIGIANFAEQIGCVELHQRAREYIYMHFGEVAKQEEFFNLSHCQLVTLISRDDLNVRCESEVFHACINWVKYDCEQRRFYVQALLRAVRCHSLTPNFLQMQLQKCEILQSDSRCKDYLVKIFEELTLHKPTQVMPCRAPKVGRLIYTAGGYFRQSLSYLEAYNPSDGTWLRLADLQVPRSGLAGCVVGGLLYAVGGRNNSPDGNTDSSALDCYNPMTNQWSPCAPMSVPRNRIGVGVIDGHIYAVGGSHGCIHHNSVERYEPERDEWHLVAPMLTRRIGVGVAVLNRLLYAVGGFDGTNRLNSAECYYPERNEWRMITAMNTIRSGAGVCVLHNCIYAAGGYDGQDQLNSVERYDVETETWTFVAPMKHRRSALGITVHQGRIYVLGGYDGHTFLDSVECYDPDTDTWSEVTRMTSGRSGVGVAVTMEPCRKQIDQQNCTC
- protocol summary: NRF2-Keap1 TR-FRET Low Protein Assay
- assay context: Keap1 FlagHis, biotin-NRF2
- Source text: NRF2-Keap1 TR-FRET Low Protein Assay In the NRF2-Keap1 TR-FRET (time-resolved fluorescence resonance energy transfer) low protein assay, full length NRF2 protein and full length Keap1 protein (Keap1 exists a dimer) are used. The assay detects a compound's ability to displace the binding of Keap1 FlagHis with biotinylated Avi-NRF2 protein. […]
pEC50: −log10 of the molar value.
Documented pEC50 across a set of molecules

# molecule, pEC50
rows = [
    ("C[C@H](Oc1cccc(-c2cccc(-n3ccc(C(=O)O)c3[C@@H]3C[C@H]3c3cn(C)nn3)c2)c1)C1CCCCC1 (racemic)", "6.00 to 7.00"),
    ("Cn1cc([C@@H]2C[C@H]2c2c(C(=O)O)ccn2-c2cccc(CN3Cc4ccccc4CC(C)(C)C3)c2)nn1 (racemic)", "6.00 to 7.00"),
    ("C[C@H]1Cc2ccc(C(F)(F)F)cc2S(=O)(=O)N(Cc2cccc(-n3ccc(C(=O)O)c3[C@@H]3C[C@H]3c3cn(C)nn3)c2)C1 (racemic)", "7.00 to 8.00"),
]
